# pKi values compiled below
Target: UniProtKB Q04759
Assay: PKC theta kinase inhibition, coupled-enzyme NADH absorbance assay (Ki)
Type: biochemical
Conditions: 240 μM ATP, 18 nM PKC theta, 30° C.; read-out: Ki PKC theta
pKi: −log10 of the molar value.
OBSERVATION TYPE: pKi

# MOLECULE, SYSTEM, RECORDED RESULT
measured = [
    ("CCc1ccc(-c2ccnc3[nH]ncc23)cc1C(C)(C)CN [Compound 132]", "UniProtKB Q04759", "> 6.30"),
    ("NC(CCC1CCCC1)c1cccc(-c2ccnc3[nH]ncc23)c1 (stereo not drawn) [Compound 253]", "UniProtKB Q04759", "< 6.15"),
    ("CCC(F)c1cc(-c2ccnc3[nH]ncc23)cc(C(C)(CC)CN)c1 (stereo not drawn) [Compound 158]", "UniProtKB Q04759", "> 6.30"),
    ("NC(CCC1CCCCC1)c1cccc(-c2ccnc3[nH]ncc23)c1 (stereo not drawn) [Compound 252]", "UniProtKB Q04759", "< 6.15"),
    ("N#CC1(c2cccc(-c3ccnc4[nH]ncc34)n2)CCNCC1 [Compound 2]", "UniProtKB Q04759", "> 7.30"),
    ("CC(C#N)(Cc1ccccn1)c1cccc(-c2ccnc3[nH]ncc23)c1 (stereo not drawn) [Compound 115]", "UniProtKB Q04759", "< 6.15"),
    ("OCC1(c2cccc(-c3ccnc4[nH]nc(C(F)(F)F)c34)c2)CCC1 [Compound 291]", "UniProtKB Q04759", "> 7.30"),
    ("COC(CN)c1cc(C)cc(-c2ccnc3[nH]nc(C(F)(F)F)c23)c1 (stereo not drawn) [Compound 297]", "UniProtKB Q04759", "> 7.30"),
    ("Cc1cc(-c2ccnc3[nH]ncc23)cc(C(C)(C)CN)c1 [Compound 32]", "UniProtKB Q04759", "> 7.30"),
]

---

Target: PKC theta kinase (Homo sapiens)
Test: PKC theta kinase inhibition, coupled-enzyme NADH absorbance assay (Ki)
Assay type: biochemical
Conditions: 240 μM ATP, 18 nM PKC theta, 30° C.; read-out: Ki PKC theta

# MOLECULE, Ki
records = [
    ("C=Cc1cc(-c2ccnc3[nH]ncc23)cc(C(C)(C)CN)c1", "< 500 nM"),
    ("CCC(C)(C#N)c1cc(Br)cc(-c2ccnc3[nH]ncc23)c1 (stereo not drawn)", "< 500 nM"),
    ("NCC1(c2cc(F)cc(-c3ccnc4[nH]nc(Cl)c34)c2)CCC1", "< 50 nM"),
    ("Cc1cc(-c2ccnc3[nH]ncc23)cc(C2(Cc3ccccc3)CNC(=O)O2)c1 (stereo not drawn)", "< 500 nM"),
    ("CCC(C)(CN)c1cccc(-c2ccnc3[nH]ncc23)c1 (stereo not drawn)", "< 50 nM"),
    ("CC[C@](C)(CN)c1cccc(-c2ccnc3[nH]ncc23)c1", "< 50 nM"),
    ("CCc1n[nH]c2nccc(-c3cc(F)cc(C4(CN)CCC4)c3)c12", "< 50 nM"),
    ("CC(CC#N)c1cc(Br)cc(-c2ccnc3[nH]ncc23)c1 (stereo not drawn)", "< 500 nM"),
    ("CC(O)Cc1cc(-c2ccnc3[nH]ncc23)cc(C(C)(C)C#N)c1 (stereo not drawn)", "< 500 nM"),
]

---

Reported Ki by item:
Biological target: PKC alpha kinase (Homo sapiens, UniProt P17252)
Assay: PKC alpha kinase inhibition, coupled-enzyme NADH absorbance assay (Ki)
Type: biochemical
Conditions: 130 μM ATP, 4.5 nM PKC alpha, 30° C.; read-out: Ki PKC alpha

# MOLECULE, SYSTEM, Ki
measured = [
    ("CCc1n[nH]c2nccc(-c3cccc(C4(CN)COC4)c3)c12 [Compound 306]", "PKC alpha kinase (Homo sapiens, UniProt P17252)", "> 1.2 µM"),
    ("CCC(C)(C#N)c1cc(-c2ccnc3[nH]ncc23)cc(C(F)(F)CCC2CCCCC2)c1 (stereo not drawn) [Compound 118]", "PKC alpha kinase (Homo sapiens, UniProt P17252)", "> 1.2 µM"),
    ("Cc1cc(-c2ccnc3[nH]nc(C4CC4)c23)cc(C2(CN)CC2)c1 [Compound 268]", "PKC alpha kinase (Homo sapiens, UniProt P17252)", "< 0.5 µM"),
    ("NCC1(c2cccc(-c3ccnc4[nH]ncc34)c2)CC=C(F)CC1 (stereo not drawn) [Compound 184]", "PKC alpha kinase (Homo sapiens, UniProt P17252)", "< 0.5 µM"),
    ("CNCc1cc(-c2ccnc3[nH]ncc23)cc(C(C)(C)C#N)c1 [Compound 75]", "PKC alpha kinase (Homo sapiens, UniProt P17252)", "> 2.8 µM"),
    ("CCC(C)(C#N)c1cc(CCN)cc(-c2ccnc3[nH]ncc23)c1 (stereo not drawn) [Compound 127]", "PKC alpha kinase (Homo sapiens, UniProt P17252)", "> 1.2 µM"),
    ("C#CC1(c2cc(C)cc(-c3ccnc4[nH]ncc34)c2)CNC(=O)O1 (stereo not drawn) [Compound 319]", "PKC alpha kinase (Homo sapiens, UniProt P17252)", "< 0.5 µM"),
    ("C#CCC(C)(CN)c1cccc(-c2ccnc3[nH]ncc23)c1 (stereo not drawn) [Compound 135]", "PKC alpha kinase (Homo sapiens, UniProt P17252)", "< 0.05 µM"),
    ("C=CCc1cc(-c2ccnc3[nH]ncc23)cc(C(C)(C)C#N)c1 [Compound 67]", "PKC alpha kinase (Homo sapiens, UniProt P17252)", "< 2.8 µM"),
]

---

Target: PKC alpha kinase (Homo sapiens, UniProt P17252)
Experiment: PKC alpha kinase inhibition, coupled-enzyme NADH absorbance assay (Ki)
Type: biochemical
Settings: 130 μM ATP, 4.5 nM PKC alpha, 30° C.; read-out: Ki PKC alpha

# COMPOUND, Ki
measured = [
    ("Cc1cc(-c2ccnc3[nH]ncc23)cc(C2(Cc3ccccc3)CNC(=O)O2)c1 (stereo not drawn)", "< 2.8 µM"),
    ("NC[C@]1(c2cccc(-c3ccnc4[nH]ncc34)c2)CC[C@H](O)CC1", "> 1.2 µM"),
    ("CCC(C)(C#N)c1cccc(-c2ccnc3[nH]ncc23)c1 (stereo not drawn)", "< 2.8 µM"),
    ("N#CC1(c2cccc(-c3ccnc4[nH]ncc34)c2)CCC1", "< 2.8 µM"),
    ("CC(C)(CN)c1cccc(-c2ccnc3[nH]ncc23)c1", "< 2.8 µM"),
    ("CC#CCC(C)(C#N)c1cccc(-c2ccnc3[nH]ncc23)c1 (stereo not drawn)", "< 2.8 µM"),
    ("Cc1cc(-c2ccnc3[nH]nc(C(F)(F)F)c23)cc(C2(CN)CCOCC2)c1", "< 0.5 µM"),
    ("CC/C=C\\C1(c2cccc(-c3ccnc4[nH]ncc34)c2)CCNC1 (stereo not drawn)", "< 0.5 µM"),
    ("CC(F)c1cc(-c2ccnc3[nH]ncc23)cc(C(C)(C)C#N)c1 (stereo not drawn)", "< 2.8 µM"),
]

---

As shown below, each of these molecules has a reported Ki value.
Target: PKC theta kinase (Homo sapiens, UniProt Q04759)
Sequence (Q04759 whole entry): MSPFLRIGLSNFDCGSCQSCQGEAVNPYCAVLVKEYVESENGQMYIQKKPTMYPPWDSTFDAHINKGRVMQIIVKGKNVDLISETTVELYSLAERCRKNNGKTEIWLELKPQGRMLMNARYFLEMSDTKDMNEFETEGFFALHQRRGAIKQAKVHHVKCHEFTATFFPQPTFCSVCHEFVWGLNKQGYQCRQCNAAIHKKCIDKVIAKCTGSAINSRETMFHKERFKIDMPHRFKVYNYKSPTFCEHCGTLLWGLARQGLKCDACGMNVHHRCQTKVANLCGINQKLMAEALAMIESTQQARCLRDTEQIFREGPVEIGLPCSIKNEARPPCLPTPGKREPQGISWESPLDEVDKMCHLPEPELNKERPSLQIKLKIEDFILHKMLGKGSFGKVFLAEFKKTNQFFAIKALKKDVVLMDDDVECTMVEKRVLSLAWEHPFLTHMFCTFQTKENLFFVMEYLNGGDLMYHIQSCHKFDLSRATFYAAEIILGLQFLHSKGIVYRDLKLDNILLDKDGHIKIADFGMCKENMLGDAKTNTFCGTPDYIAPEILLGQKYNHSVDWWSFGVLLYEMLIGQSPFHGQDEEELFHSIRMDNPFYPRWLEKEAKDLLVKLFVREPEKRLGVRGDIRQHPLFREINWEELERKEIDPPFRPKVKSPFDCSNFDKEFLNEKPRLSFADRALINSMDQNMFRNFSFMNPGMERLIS
Assay: PKC theta kinase inhibition, coupled-enzyme NADH absorbance assay (Ki)
Format: biochemical
Conditions: 240 μM ATP, 18 nM PKC theta, 30° C.; read-out: Ki PKC theta
OBSERVATION TYPE: Ki

# MOLECULE, OBSERVATION TYPE, RECORDED RESULT
rows = [
    ("CC(C)(CN)c1cc(Br)cc(-c2ccnc3[nH]ncc23)c1", "Ki", "< 50 nM"),
    ("NCC1(c2cc(F)cc(-c3ccnc4[nH]nc(C(F)(F)F)c34)c2)CCC1", "Ki", "< 50 nM"),
    ("FC(F)(F)c1n[nH]c2nccc(-c3cccc(C4(COCc5ccccc5)CC4)c3)c12", "Ki", "> 700 nM"),
    ("OCC1CCc2ccc(-c3ccnc4[nH]ncc34)cc21 (stereo not drawn)", "Ki", "< 2800 nM"),
    ("C=CCc1cc(-c2ccnc3[nH]ncc23)cc(C(C)(C)CC#N)c1", "Ki", "< 2800 nM"),
    ("COCCC(C)(C#N)c1cccc(-c2ccnc3[nH]ncc23)c1 (stereo not drawn)", "Ki", "< 2800 nM"),
    ("CC(C)(C#N)c1cc(N)cc(-c2ccnc3[nH]ncc23)c1", "Ki", "< 500 nM"),
    ("N#CC(c1cccc(-c2ccnc3[nH]ncc23)c1)N1CCNCC1 (stereo not drawn)", "Ki", "< 500 nM"),
    ("CCC(N)c1cccc(-c2ccnc3[nH]ncc23)c1 (stereo not drawn)", "Ki", "< 500 nM"),
]

---

Target: UniProt Q04759
Assay: PKC theta kinase inhibition, coupled-enzyme NADH absorbance assay (Ki)
Assay type: biochemical
Conditions: 240 μM ATP, 18 nM PKC theta, 30° C.; read-out: Ki PKC theta

# COMPOUND, SYSTEM, Ki
measured = [
    ("CCC1(c2cc(C)cc(-c3ccnc4[nH]nc(C(F)(F)F)c34)c2)CNC(=O)O1 (stereo not shown)", "UniProt Q04759", "< 50 nM"),
    ("N#CC1(c2cccc(-c3ccnc4[nH]nc(C(F)(F)F)c34)c2)CCC1", "UniProt Q04759", "< 50 nM"),
    ("CCCc1cc(-c2ccnc3[nH]ncc23)cc(C(C)(C)CN)c1", "UniProt Q04759", "< 500 nM"),
    ("CCC(O)c1cccc(-c2ccnc3[nH]ncc23)c1 (stereo not shown)", "UniProt Q04759", "< 2800 nM"),
    ("CCC(C)(C#N)c1cc(CCN)cc(-c2ccnc3[nH]ncc23)c1 (stereo not shown)", "UniProt Q04759", "< 500 nM"),
    ("C1=C(c2cccc(-c3ccnc4[nH]ncc34)c2)CNC1", "UniProt Q04759", "< 500 nM"),
    ("CCc1cc(-c2ccnc3[nH]nc(Cl)c23)cc(C2(CN)CCC2)c1", "UniProt Q04759", "< 50 nM"),
    ("CCCCNC(CC)c1cccc(-c2ccnc3[nH]ncc23)c1 (stereo not shown)", "UniProt Q04759", "< 500 nM"),
    ("CC(C)(C#N)c1cc(NCCCN)cc(-c2ccnc3[nH]ncc23)c1", "UniProt Q04759", "< 500 nM"),
    ("N#CC(CCO)c1cccc(-c2ccnc3[nH]ncc23)c1 (stereo not shown)", "UniProt Q04759", "< 500 nM"),
    ("CCC(C)(CN)c1cccc(-c2ccnc3[nH]nc(C(F)(F)F)c23)c1 (stereo not shown)", "UniProt Q04759", "< 50 nM"),
    ("C=Cc1cc(-c2ccnc3[nH]ncc23)cc(C(C)(C)C#N)c1", "UniProt Q04759", "< 500 nM"),
    ("C#CC1(c2cc(C)cc(-c3ccnc4[nH]ncc34)c2)CNC(=O)O1 (stereo not shown)", "UniProt Q04759", "< 50 nM"),
    ("CC(C)C(C)(CN)c1cccc(-c2ccnc3[nH]ncc23)c1 (stereo not shown)", "UniProt Q04759", "< 50 nM"),
    ("CCC(C)(CN)c1cc(-c2ccnc3[nH]ncc23)cc(C(F)(F)CCC2CCCCC2)c1 (stereo not shown)", "UniProt Q04759", "> 700 nM"),
    ("N#CC1(c2cc(-c3ccnc4[nH]ncc34)cc(C(F)(F)C3CNC3)c2)CC1", "UniProt Q04759", "< 50 nM"),
    ("NCC1(c2cccc(-c3ccnc4[nH]nc(Cl)c34)c2)CCC1", "UniProt Q04759", "< 50 nM"),
    ("NCC1(c2cccc(-c3ccnc4[nH]ncc34)c2)CC1", "UniProt Q04759", "< 50 nM"),
    ("NCC1(c2cccc(-c3ccnc4[nH]ncc34)c2)CCCCC1", "UniProt Q04759", "< 50 nM"),
    ("CCC(CN)c1cccc(-c2ccnc3[nH]nc(C(F)(F)F)c23)c1 (stereo not shown)", "UniProt Q04759", "< 50 nM"),
    ("CCC(C)(CN)c1cc(-c2ccnc3[nH]ncc23)cc(C(C)F)c1 (stereo not shown)", "UniProt Q04759", "< 50 nM"),
    ("N#CC1(c2cccc(-c3ccnc4[nH]nc(Cl)c34)c2)CC1", "UniProt Q04759", "< 50 nM"),
    ("CCC(C)(CN)c1cc(C)cc(-c2ccnc3[nH]ncc23)c1 (stereo not shown)", "UniProt Q04759", "< 50 nM"),
    ("CCC(C)(CN)c1cccc(-c2ccnc3[nH]nc(Cl)c23)c1 (stereo not shown)", "UniProt Q04759", "< 50 nM"),
    ("CC(=O)c1cc(-c2ccnc3[nH]ncc23)cc(C(C)(C)C#N)c1", "UniProt Q04759", "< 500 nM"),
    ("N#CC1(c2cc(CCCO)cc(-c3ccnc4[nH]nc(C(F)(F)F)c34)c2)CC1", "UniProt Q04759", "< 50 nM"),
    ("CCCC(C)(CN)c1cccc(-c2ccnc3[nH]ncc23)c1 (stereo not shown)", "UniProt Q04759", "< 50 nM"),
    ("N#CCC1(c2cccc(-c3ccnc4[nH]ncc34)c2)CCNC1 (stereo not shown)", "UniProt Q04759", "< 50 nM"),
    ("Cc1cc(-c2ccnc3[nH]nc(C(F)(F)F)c23)cc(C(C)(C)C#N)c1", "UniProt Q04759", "< 50 nM"),
    ("N#C[C@]1(c2cccc(-c3ccnc4[nH]ncc34)c2)C[C@H](N)C1", "UniProt Q04759", "< 50 nM"),
    ("CC(CN)(Cc1cscn1)c1cccc(-c2ccnc3[nH]ncc23)c1 (stereo not shown)", "UniProt Q04759", "< 50 nM"),
    ("CCC(C#N)c1cccc(-c2ccnc3[nH]ncc23)c1 (stereo not shown)", "UniProt Q04759", "< 500 nM"),
    ("C1=C(c2cccc(-c3ccnc4[nH]ncc34)c2)CCNC1", "UniProt Q04759", "< 500 nM"),
    ("CCC(C)(C#N)c1cc(CCC(F)F)cc(-c2ccnc3[nH]ncc23)c1 (stereo not shown)", "UniProt Q04759", "< 500 nM"),
    ("CC(C)(C#N)c1cc(NCCCNC(=O)OCc2ccccc2)cc(-c2ccnc3[nH]ncc23)c1", "UniProt Q04759", "< 2800 nM"),
    ("CC(C)(C#N)c1cc(NCCN)cc(-c2ccnc3[nH]ncc23)c1", "UniProt Q04759", "< 500 nM"),
    ("CC(C)(C#N)c1cc(CN)cc(-c2ccnc3[nH]ncc23)c1", "UniProt Q04759", "< 2800 nM"),
]
